Values from paper PMC10397247

Target: T1, 4H1867-AA
T1 chain: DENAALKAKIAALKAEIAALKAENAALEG
Experiment: two-hybrid library CCmax;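 also: natural log of median RNA to DNA barcode read ratio; higher means stronger binding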
Settings: mean of both orientations
# label = fulfilled if interaction score >= 0.5 else not fulfilled

[[record]]
binder = "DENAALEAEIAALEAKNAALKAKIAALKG [4H1086-AA]"
classification = "not fulfilled"

[[record]]
binder = "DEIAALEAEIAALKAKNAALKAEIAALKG [4H122-AA]"
classification = "fulfilled"

[[record]]
binder = "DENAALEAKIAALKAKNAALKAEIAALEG [4H1401-AA]"
classification = "not fulfilled"

[[record]]
binder = "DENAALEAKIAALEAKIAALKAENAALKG [4H1324-AA]"
classification = "not fulfilled"

[[record]]
binder = "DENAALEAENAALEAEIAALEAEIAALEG [4H1153-AA]"
classification = "fulfilled"

[[record]]
binder = "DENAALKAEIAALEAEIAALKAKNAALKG [4H1552-AA]"
classification = "fulfilled"

[[record]]
binder = "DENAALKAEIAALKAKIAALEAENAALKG [4H1636-AA]"
classification = "not fulfilled"

[[record]]
binder = "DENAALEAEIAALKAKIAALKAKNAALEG [4H1135-AA]"
classification = "not fulfilled"

[[record]]
binder = "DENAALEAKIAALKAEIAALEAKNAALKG [4H1352-AA]"
classification = "fulfilled"

